- Test system: Aerobactin synthetase IucA (Klebsiella pneumoniae)
- method: IucA aerobactin synthetase inhibitors, biochemical, Tocris library, absorbance (AID 1345561);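 note: 100% = enzyme without compound and 0% = no enzyme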
- condition_label: purified IucA enzyme assay, absorbance (OD) read-out; stronger effect = lower value; concentration not given here
I'd appreciate it if you could supply remaining activity values for the items below.
Numbers only, in %.

Consider the worked cases shown below.
C=CCN1CCc2cc(O)c(O)cc2C(c2ccccc2)C1 (centres undefined) | 113
Cc1c(C(=O)NN2CCCCC2)nn(-c2ccc(Cl)cc2Cl)c1-c1ccc(I)cc1 | 112
Cc1ccc(-c2nn(C(C)(C)C)c3ncnc(N)c23)cc1 | 109

Give me remaining activity for each of these molecules, listed below.
1. NC(=O)Nc1sc(-c2ccc(F)cc2)cc1C(N)=O
2. CCCCCCCC/C=C\CCCCCCCC(=O)NCCO
3. O=C(O)CCc1ccc(NCc2cccc(Oc3ccccc3)c2)cc1
4. C[C@H](NC(=O)c1sccc1OCc1ccc(Cl)cc1)c1ccccc1
5. Cc1cc(I)ccc1Nc1c(C(=O)NOCC2CC2)cc(F)c(F)c1F
6. COc1ccc(-c2oc3cc(OC)ccc3c2C(=O)c2ccc(C#N)cc2)cc1
7. CC(C)NC[C@H](O)COc1ccc(CC(N)=O)cc1

# output
1. 122
2. 112
3. 92.7
4. 124
5. 104
6. 104
7. 87

Give one value of remaining activity per listed molecule.
1. CC(C)[C@@H]1CC[C@@H](C)C[C@@H]1P(=O)(c1ccccc1)c1ccccc1
2. O=C(O)c1ccc2cc(-c3ccc(O)c(C45CC6CC(CC(C6)C4)C5)c3)ccc2c1
3. Cc1ccc2c(c1)C(=O)C1(O)CCN(c3ccccc3)C1=N2 (centres undefined)

# output
100
120
119

Could you tell me remaining activity for each of these molecules? They are listed below.
1. COc1ccc(NC(=O)c2ccc(-c3ccc(-c4noc(C)n4)cc3C)cc2)cc1N1CCN(C)CC1
2. C[C@H](NC(=O)/C(C#N)=C/c1ccc(O)c(O)c1)c1ccccc1
3. O=c1ncccn1[C@@H]1O[C@H](CO)[C@@H](O)[C@H]1O

# output
1. 119
2. 111
3. 115

Could you report remaining activity for every entry in the following list?
1. CC(C)(C)n1nc(-c2ccc(Cl)cc2)c2c(N)ncnc21
2. CC(C)NCC(O)c1ccc(NS(C)(=O)=O)cc1 (centres undefined)
3. Cn1cc(C(=O)OCC2CCN(CCNS(C)(=O)=O)CC2)c2ccccc21
4. O=C1NC(=O)c2cc(Nc3ccccc3)c(Nc3ccccc3)cc21

# output
1: 92.2; 2: 91.3; 3: 123; 4: 123

###

- method: inhibition of 3D7 malaria parasite growth – strain 3D7 (AID 2306);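 note: 0% = DMSO wells and 100% = chloroquine plus artemisinin control wells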
- condition_label: P. falciparum 3D7 erythrocytic growth, LDH absorbance, 72 h; at 2 µM; stronger effect = higher value
parameter: growth inhibition (%)
One number for each entry, in %.

CCOc1cc(Cc2cnc(N)nc2N)cc(Br)c1OC | 83
Nc1ccc(-c2cc(Cl)cc(Cl)c2)cc1-c1cc2ccccc2[nH]1 | 101
O=C(NC(=O)c1ccccc1)NC1CCN(c2ccnc3cc(Cl)ccc23)C1 (stereo not given) | 101
CC(C(=O)N1CCCC1)N1CCN(C(c2ccccc2)c2ccccc2)CC1 (stereo not given) | 82
Nc1nccc2ccc(OC3CCCCC3)cc12 | 98
CC1CCN(Cc2c(O)ccc3c(CN4CCC(C)CC4)c(O)ccc23)CC1 | 102
CC(=O)N(C)C1CCN(Cc2ccc(-c3cccc(-c4nc5ccc(F)cc5[nH]4)c3)cc2)C1 (stereo not given) | 100
CCOc1cc2ncnc(Nc3ccc(OCc4c(F)cccc4F)c(OC)c3)c2cc1OCC | 96
CC(=O)N(C)c1cccc(C(=O)Nc2cccc(-c3ccc(-c4nc5ccc(C(F)(F)F)cc5[nH]4)cc3)c2)c1 | 90
CS(=O)(=O)Nc1cccc(-c2cnc3[nH]cc(-c4ccc(C(=O)O)c(F)c4)c3c2)c1 | 99

Report growth inhibition for every entry below.
1. COc1ccc2nccc([C@@H](O)CN3CCC(NCc4cnc5c(c4)NC(=O)CS5)CC3)c2c1
2. CCc1cc2c3c(N)nc(N)nc3ccc2n1C(C)(C)C
3. O=C(Nc1cccc(-c2nn3ccccc3c2-c2ccnc(Nc3ccc(NCCCN4CCOCC4)c(F)c3)n2)c1)c1c(F)cccc1F
4. Cc1ccc(NC(=O)c2ccc(Cl)cc2)cc1-c1ccc(C(=O)Nc2ccncc2)cc1
5. Oc1ccc(CN2CCC(NCc3cccc(C(F)(F)F)c3)CC2)cc1

# output
87
99
100
98
101

Please look at the items below and tell me growth inhibition for each one, in order.
1. COc1ccc(C2N=C(N)N=C(N)N2OCc2ccccc2)cc1OC (stereo not given)
2. N#Cc1cccc(Nc2nccc(NCC(O)c3ccccc3C(F)(F)F)n2)c1 (stereo not given)
3. CCNC(C)(C)CN(Cc1ccc(-c2ccc(C(F)(F)F)cc2)cc1)C(=O)Cn1c(CCc2cccc(F)c2F)nc(=O)c2ccccc21
4. O=C(NCCc1ccccc1)N(Cc1ccccc1-c1cccc(CNC2CCCC2)c1)C1CCN(Cc2ccccc2)CC1
5. O=C(NCCCN1CCCCC1)c1ccc(Nc2nccc(Nc3ccc(Oc4ccccc4)cc3)n2)cc1

# output
1. 95
2. 98
3. 97
4. 95
5. 100
